Measured Group Mean Days of Delay to 1000 mm^3, listed per entry for reference.
# System: human B-cell lymphoma (Daudi) xenograft
# measurement-notes: Daudi xenograft model: IL-2 with CHOP and individual CHOP constituents (Example 2)
# Format: in vivo, BALB/c nude mice
# study-conditions: vs. control group

C[C@]12C=CC(=O)C=C1CC[C@@H]1[C@@H]2C(=O)C[C@@]2(C)[C@H]1CC[C@]2(O)C(=O)CO : 2 days
O=P1(N(CCCl)CCCl)NCCCO1 (stereo not shown) [Cyclophosphamide, cyclophosphamide] : 1 days
CC[C@]1(O)C[C@H]2CN(CCc3c([nH]c4ccccc34)[C@@](C(=O)OC)(c3cc4c(cc3OC)N(C=O)[C@H]3[C@@](O)(C(=O)OC)[C@H](OC(C)=O)[C@]5(CC)C=CCN6CC[C@]43[C@@H]65)C2)C1 : 12 days

Input: Name the recorded Group Mean Days of Delay to 1000 mm^3 of the item `COc1cccc2c1C(=O)c1c(O)c3c(c(O)c1C2=O)C[C@@](O)(C(=O)CO)C[C@@H]3O[C@H]1C[C@H](N)[C@H](O)[C@H](C)O1` in your answer.
Output: 2 days

====

Measured Tumor response PR, listed per entry for reference.
# System: Daudi lymphoma tumor model
# measurement-notes: Pooled Daudi xenograft studies and assessment of synergistic activity (Example 5)
# Type: in vivo, BALB/c nude mice
# study-conditions: pooled studies; number of mice, (n) in cell

C[C@]12C=CC(=O)C=C1CC[C@@H]1[C@@H]2C(=O)C[C@@]2(C)[C@H]1CC[C@]2(O)C(=O)CO [Prednisone] : 0
CC[C@]1(O)C[C@H]2CN(CCc3c([nH]c4ccccc34)[C@@](C(=O)OC)(c3cc4c(cc3OC)N(C=O)[C@H]3[C@@](O)(C(=O)OC)[C@H](OC(C)=O)[C@]5(CC)C=CCN6CC[C@]43[C@@H]65)C2)C1 [Vincristine] : 0%; 0/0 (10)
O=P1(N(CCCl)CCCl)NCCCO1 (stereo not shown) [Cyclophosphamide, cyclophosphamide] : 0%; 0/0 (10)

Input: Under Daudi lymphoma tumor model: report Tumor response PR of COc1cccc2c1C(=O)c1c(O)c3c(c(O)c1C2=O)C[C@@](O)(C(=O)CO)C[C@@H]3O[C@H]1C[C@H](N)[C@H](O)[C@H](C)O1 [Doxorubicin] .
Output: 0%; 0/0 (10)

// provenance: patent US20060251617A1
